Exercise: state measured inhibition for each of the molecules provided.
experiment_description: blockers of RIG-like receptor reporter activation – cell-based, Sendai virus stimulus, luciferase, 10K MLSCN set, TLR/RLR signaling modifier project, primary screen (AID 602276);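 further: firefly luciferase from ISG56 promoter only with Renilla not read in this screen; 0% = Sendai virus plus DMSO and 100% = medium plus DMSO without virus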
applied_conditions: HEK293 RL24 IRF3 luciferase reporter, at 10 µM, stronger effect = higher value
Give bare numbers, in %.

Please review the entries below; each comes with its answer.
molecule: COc1ccc(-n2c(SCC(=O)c3c(N)n(C)c(=O)n(C)c3=O)nc3ccccc32)cc1
quantitative_readout: 10.6
//
molecule: CC(=O)N(C)C1(c2nnnn2CCOC(=O)Nc2ccc(Cl)cc2)CCCCC1
quantitative_readout: 1.79
//
molecule: CCCCCOC(=O)C1=C(C)N(C)C(=O)NC1c1cc(Br)c(O)c(OC)c1 (stereo unspecified)
quantitative_readout: 1.53

Quick one: give me inhibition for each item below, same order please.
1. CC(=NCC1CCNCC1)C1=C(O)CC(C)(C)CC1=O
2. CC(=O)N1CCN(Cc2ccc(Br)s2)CC1

1. 4.83
2. 13.6

Quick one: give me inhibition for each item below, same order please.
1. O=C(CSc1nc(-c2ccccc2)cs1)NC(=O)NCc1ccco1
2. CCOc1ccc(NC(=O)CSc2nnc(Cc3cccn3C)n2-c2ccc(OC)cc2)cc1
3. Cn1c(C(=O)NCC2CCCO2)cc2c(=O)n(C)c3ccccc3c21 (stereo unspecified)
4. Cc1ccc(CSc2nc3c(c(=O)[nH]2)CCC3)cc1
5. CCOc1ccc(NCc2nnc(SCC(=O)Nc3cc(C)on3)n2-c2ccccc2OC)cc1

[18.5, -4.09, 7.53, -0.266, 20.4]

====

Exercise: state measured nuclei count for each of the molecules provided.
experiment_description: reduction of polyQ htt aggregates in cells – imaging, exon1htt(103Q)mCFP cells, high-content imaging, primary screen (AID 483);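 further: compound exposure lasted 3 days before fixation; percent of the per-plate median nuclei count of sample wells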
applied_conditions: exon1htt(103Q)mCFP cell line, aggregate imaging, at 2 µM; measured here: cell count, toxicity
One number for each entry, in %.

Please review the entries below; each comes with its answer.
molecule: CC1(C)Cc2cccc(OCC(O)CN3CCN(c4ccccn4)CC3)c2O1 (configuration not stated)
nuclei count [%]: 92.3
//
molecule: COc1ccc(C(=O)c2ccc(OC)c(N)c2)cc1N
nuclei count [%]: 3.2
//
molecule: Fc1cccc(NCc2cn3ccccc3n2)c1
nuclei count [%]: 91.8
//
molecule: CC(C)n1c(NCc2c[nH]c3ccccc23)nc2ccccc21
nuclei count [%]: 54.6
//
molecule: CCOC(=O)Cn1c(=N)n(CCOc2cccc(C)c2)c2ccccc21
nuclei count [%]: 108
//
molecule: COC(=O)CSc1ncccc1-c1nc2ccccc2[nH]1
nuclei count [%]: 111

Quick one: give me nuclei count for each item below, same order please.
1. CC(C)(C)NC(=O)C(c1ccco1)N(C(=O)Cn1nnc(-c2ccc(F)cc2)n1)c1ccccc1F (configuration not stated)
2. CCCn1c(=NC(C)=O)c(C#N)cc2c(=O)n3cccc(C)c3nc21
3. CCOc1ccc(-c2nnn(CC(=O)N3CCN(c4ccc(F)cc4)CC3)n2)cc1OCC
4. Cc1ccc(Br)cc1S(=O)(=O)N1CCN(c2ccccc2)CC1
5. Cc1[nH]c(C(=O)N2CCCCC2)c(C)c1C(=O)NC1CCCCC1
6. Cc1cccc(N2CCN(C(=O)C3CCCN(S(=O)(=O)c4cnc[nH]4)C3)CC2C)c1 (configuration not stated)

96.5
99.9
119
108
97.4
107
